pKi: −log10 of the molar value.
Dear all, this message contains pKi results, target or system Carbonic anhydrase 2 (Homo sapiens).
Reported property: pKi

Examples with answers:
CC(=O)/C(=C\c1cccs1)C(=O)Nc1ccc(S(N)(=O)=O)cc1    8.54
CC(=O)/C(=C\c1cccc([N+](=O)[O-])c1)C(=O)Nc1ccc(S(N)(=O)=O)cc1    8.16
CC(=O)/C(=N\Nc1ccc(Cl)cc1)C(=O)Nc1ccc(S(N)(=O)=O)cc1    8.28
COc1ccc(N/N=C(\Cl)C(=O)Nc2ccc(S(N)(=O)=O)cc2)cc1    7.68
CC(=O)/C(=N\Nc1ccc(F)cc1)C(=O)Nc1ccc(S(N)(=O)=O)cc1    8.09
NS(=O)(=O)c1ccc(NC(=O)/C(Cl)=N/Nc2ccc(F)cc2)cc1    7.46
COc1ccc(N/N=C(\C(C)=O)C(=O)Nc2ccc(S(N)(=O)=O)cc2)cc1    6.56

1 = NS(=O)(=O)c1ccc(NC(=O)/C(Cl)=N/Nc2ccc(Br)cc2)cc1
2 = CC(=O)/C(=N\Nc1cccc([N+](=O)[O-])c1)C(=O)Nc1ccc(S(N)(=O)=O)cc1
query: For this pair, 1 and 2 , which shows a numerically higher pKi? In your reply, give the label of the chosen option.
result: 2
(2: 7.15, 1: 6.58)
